- measured target: T1, SUMO-RRM R450A (Schizosaccharomyces pombe, UniProt Q9UTE3 388-540, R450A)
- T1 sequence: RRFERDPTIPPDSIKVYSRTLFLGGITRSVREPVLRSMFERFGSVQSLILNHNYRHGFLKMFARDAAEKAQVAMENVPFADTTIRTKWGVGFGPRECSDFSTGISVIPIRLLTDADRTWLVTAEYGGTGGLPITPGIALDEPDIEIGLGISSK
- experiment: fluorescence anisotropy; 25 mM Tris-HCl pH 8.0, 100 mM NaCl, 2 mM MgCl2, 1 mM DTT, 16.7% glycerol, 0.1% IGEPAL, 0.1 mg/ml tRNA, 2.5% RNasin, 25 C, 40 nM FAM-RNA
- experimental context: protein: recombinant; tags: N-terminal His6-SUMO; single strand

# binder, Kd [µM]
rows = [
    ("AUUAGUAAAA (ssRNA) [FAM-AUUAGUAAAA RNA]", 1.91),
]

Data provenance: paper PMC5382271
